Tested on: Plasmodium falciparum
Assay: GSK_TCMDC: Inhibition of Plasmodium falciparum 3D7 in whole red blood cells, using parasite LDH activity as an index of growth. Test compounds present at 2uM
Format: functional
Measured Endpoint: Inhibition
# answer = value followed by unit

Give measured Inhibition for every item shown.
1. CN1CCN(CCCN(Cc2ccc(-c3cccc(CNCc4ccc5c(c4)OCO5)c3)cc2)C(=O)NC2CCCCC2)CC1.O=C(O)C(F)(F)F
2. CN1CCC(NCc2ccc(-c3ccc(S(=O)(=O)NCc4ccccc4)s3)cc2)CC1.O=C(O)C(F)(F)F
3. CN1CC[C@@H](Oc2cc(NC(=O)Nc3ccc(Cl)c(C(F)(F)F)c3)ccc2Cl)C1
4. CCn1cc2c3c(cc(C(=O)N[C@@H](Cc4ccccc4)[C@H](O)CNC4CCOCC4)cc31)N(C)S(=O)(=O)CC2

1. 95%
2. 99%
3. 100%
4. 98%
